B1: HMOX1 (parent)
chain: YHIYVALEEEIERNKESPVFAPVY

Variants of: B1
ASSAY_COMMENT: protein stability index of a GFP-peptide fusion (GPS, HEK-293T) (PSI 1-6); higher = more stable;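 also: lentivirally expressed fusions sorted by FACS into six bins by GFP to DsRed ratio, PSI derived from sequencing read proportions per bin multiplied by bin number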
ASSAY_CONDITIONS: c terminus: a fixed tail appended
OBSERVED_PROPERTY: protein stability index
# print the numeric value only

Example results:
| VARIANT_NOTATION | protein stability index |
| --- | --- |
| N14E | 1.98 |
| E8L | 2.49 |

Continue with the variant presented below.
Name the recorded protein stability index of the variant listed here: V19H
2.13
